These measurements were taken from patent US12344610B2.

Reported pEC50 values are given for each entry in this list.
# Test system: HEK293 cells overexpressing APOL1 G2
# Assay Overview: APOL1 G2 HEK293 cell rescue assay (reversal of cell death caused by overexpression of APOL1)
# Format: cell-based
# Stated Conditions: Homo sapiens, HEK293, HEK293 overexpressing APOL1 G2; geometric mean of at least 2 assay runs; † = single assay run
Recall that pEC50 is obtained by taking minus log10 of the concentration measured in molar.

Use the examples below as a reference point.
[
  {
    "Molecule": "C[C@]1(O)C[C@@H](n2c(=O)[nH]c3cc(OCCN4CCC5(CC4)C(=O)Nc4ccc(C#N)cc45)cc(C(F)(F)F)c32)C1",
    "pEC50": 6.75
  },
  {
    "Molecule": "O=C1CCc2cc(OCCN3CCC4(CC3)C(=O)Nc3ccc(Cl)cc34)cnc2N1C1CC(CO)C1 (stereo not shown)",
    "pEC50": 7.51
  }
]

Could you now consider this next molecule?
stdin: // query pEC50 value for entry `[2H]C([2H])([2H])[C@]1(O)C[C@@H](N2C(=O)CCc3cc(OCCN4CCC5(CC4)C(=O)Nc4ccc(Cl)cc45)cnc32)C1`
stdout: 7.55

* * *

# Tested on: HEK293 clonal cell line overexpressing APOL1 G1
# Assay Overview: APOL1 G1 HEK293 cell rescue assay (Example B3)
# Type: cell-based
# Stated Conditions: Homo sapiens, HEK293, HEK293 clonal line overexpressing APOL1 G1; geometric mean of at least 2 runs; † = single run; ¥ = concentration at 50% rescue estimated (no sigmoidal curve)
The label is Satisfied for EC50 below 200 nM and Not satisfied for EC50 equal to or exceeding 200 nM.

[
  {
    "Molecule": "C[C@@H](CN1CCC2(CC1)C(=O)Nc1ccccc12)Oc1ccc(S(C)(=O)=O)cc1 (single isomer, unassigned) [Compound 13]",
    "Assigned Category": "Not satisfied"
  },
  {
    "Molecule": "Cc1nc2cc(OCCN3CCC4(CC3)C(=O)Nc3ccc(Cl)cc34)cnc2n1[C@H]1C[C@@](C)(O)C1 [Compound 451]",
    "Assigned Category": "Satisfied"
  },
  {
    "Molecule": "CC(c1ccc(OCCN2CCC3(CC2)C(=O)Nc2ccc(Cl)cc23)cc1)S(C)(=O)=O (stereo not drawn) [Compound 38]",
    "Assigned Category": "Not satisfied"
  },
  {
    "Molecule": "CN1C(=O)C(C)(C)c2cc(OCCN3CCC4(CC3)C(=O)Nc3ccc(C#N)cc34)ccc21 [Compound 83]",
    "Assigned Category": "Not satisfied"
  }
]

stdin: In plain terms, does Cn1ncc2cc(OCCN3CCC4(CC3)C(=O)Nc3ccc(Cl)cc34)ccc21 [Compound 68] come in under 200 nM for EC50?
stdout: Not satisfied

* * *

# System: HEK293 clonal cell line overexpressing APOL1 G1
# Assay Overview: APOL1 G1 HEK293 cell rescue assay (Example B3)
# Type: cell-based
# Stated Conditions: Homo sapiens, HEK293, HEK293 clonal line overexpressing APOL1 G1; geometric mean of at least 2 runs; † = single run; ¥ = concentration at 50% rescue estimated (no sigmoidal curve)
Reported EC50 values are given for each entry in this list.
Please give a number only; it is taken to be in nM.

Use the examples below as a reference point.
[
  {
    "Compound": "CC(=O)N1CCc2cc(OCCN3CCC4(CC3)C(=O)Nc3ccc(Cl)cc34)ccc2C1",
    "Experimental System": "HEK293 clonal cell line overexpressing APOL1 G1",
    "EC50, nM": 414
  },
  {
    "Compound": "CC1(O)CN(c2ncc(OCCN3CCC4(CC3)C(=O)Nc3ccc(Cl)cc34)cc2C(F)(F)F)C1",
    "Experimental System": "HEK293 clonal cell line overexpressing APOL1 G1",
    "EC50, nM": 19.2
  },
  {
    "Compound": "C[C@]1(O)C[C@@H](n2cnc3cc(OCCN4CCC5(CC4)C(=O)Nc4ccc(Cl)cc45)cc(C(F)(F)F)c32)C1",
    "Experimental System": "HEK293 clonal cell line overexpressing APOL1 G1",
    "EC50, nM": 9.95
  },
  {
    "Compound": "CN1C(=O)C2(CCN(CCOc3ccc(S(=O)(=O)CCCS(C)(=O)=O)cc3)CC2)c2cc(Cl)ccc21",
    "Experimental System": "HEK293 clonal cell line overexpressing APOL1 G1",
    "EC50, nM": 449
  },
  {
    "Compound": "C[C@]1(O)C[C@@H](n2cnc3cc(OCCN4CCC5(CC4)C(=O)Nc4ccc(C(F)F)cc45)cc(C(F)(F)F)c32)C1",
    "Experimental System": "HEK293 clonal cell line overexpressing APOL1 G1",
    "EC50, nM": 14.9
  },
  {
    "Compound": "CS(=O)(=O)c1ccc(OCCN2CCC3(CC2)C(=O)Nc2ccc(C#N)cc23)cc1F",
    "Experimental System": "HEK293 clonal cell line overexpressing APOL1 G1",
    "EC50, nM": 471
  }
]

stdin: // query EC50 value for entry `C[C@]1(O)C[C@@H](N2C(=O)CCc3cc(OCCN4CCC5(CC4)C(=O)Nc4ccc(C#N)cc45)cnc32)C1`
stdout: 247

stdin: // query EC50 value for entry `CS(=O)(=O)c1ccc(OCCN2CCC3(CC2)C(=O)Nc2ccc(Cl)cc23)cc1Cl`
stdout: 67

stdin: // query EC50 value for entry O=C1CCC2c3ccc(OCCN4CCC5(CC4)C(=O)Nc4ccc(Cl)cc45)cc3CCN12 (centres unmarked) [Compound 121]
stdout: 249

* * *

# System: HEK293 clonal cell line overexpressing APOL1 G1
# Assay Overview: APOL1 G1 HEK293 cell rescue assay (Example B3)
# Type: cell-based
# Stated Conditions: Homo sapiens, HEK293, HEK293 clonal line overexpressing APOL1 G1; geometric mean of at least 2 runs; † = single run; ¥ = concentration at 50% rescue estimated (no sigmoidal curve)
Experimental Endpoint: pEC50
Recall that pEC50 is obtained by taking minus log10 of the concentration measured in molar.

[
  {
    "Smiles Repr": "O=C(c1c(F)cc(OCCN2CCC3(CC2)C(=O)Nc2ccc(Cl)cc23)cc1F)N1CCS(=O)(=O)CC1",
    "Experimental System": "HEK293 clonal cell line overexpressing APOL1 G1",
    "Value Measured": 7.03
  }
]

Could you now consider this next molecule?
stdin: // query pEC50 value for entry `C[C@]1(O)C[C@@H](n2cc3cc(OCCN4CCC5(CC4)C(=O)Nc4ccc(C#N)cc45)cc(C(F)(F)F)c3n2)C1`
stdout: 7.05

* * *

# System: Trypanosoma brucei Lister 427 VSG221 with APOL1 G1 recombinant protein
# Assay Overview: APOL1 G1 trypanosome cell rescue assay (Example B5)
# Format: cell-based
# Stated Conditions: Trypanosoma brucei, 20 h, read-out: APOL1 G1 Trypanosome Rescue EC50, Trypanosoma brucei Lister 427 VSG221 with APOL1 G1 recombinant protein, 20 hours, CellTiter-Glo; geometric mean of at least 2 assay runs; † = single assay run
Experimental Endpoint: EC50 (nM)
Please give a number only; it is taken to be in nM.

Use the examples below as a reference point.
[
  {
    "Compound": "CN(c1ccc(OCCN2CCC3(CC2)C(=O)Nc2ccc(Cl)cc23)cc1)S(C)(=O)=O",
    "Experimental System": "Trypanosoma brucei Lister 427 VSG221 with APOL1 G1 recombinant protein",
    "Units": "nM",
    "Value Measured": 126
  },
  {
    "Compound": "O=C1Nc2ccccc2C12CCN(CCOc1ccc(S(=O)(=O)C(F)F)cc1)CC2",
    "Experimental System": "Trypanosoma brucei Lister 427 VSG221 with APOL1 G1 recombinant protein",
    "Units": "nM",
    "Value Measured": 429
  },
  {
    "Compound": "N#Cc1ccc2c(c1)C1(CCN(CCOc3ccc4c(c3)CCNS4(=O)=O)CC1)C(=O)N2",
    "Experimental System": "Trypanosoma brucei Lister 427 VSG221 with APOL1 G1 recombinant protein",
    "Units": "nM",
    "Value Measured": 638
  }
]

stdin: // query EC50 value for entry `CN(C)C(=O)c1ccc(OCCN2CCC3(CC2)C(=O)Nc2ccc(Cl)cc23)cc1F`
stdout: 801

stdin: // query EC50 value for entry `CC(C)(c1ccc(OCCN2CCC3(CC2)C(=O)Nc2ccc(C#N)cc23)cn1)S(C)(=O)=O`
stdout: 304

stdin: // query EC50 value for entry `Cn1ncc2cc(OCCN3CCC4(CC3)C(=O)Nc3ccc(Cl)cc34)ccc21`
stdout: 441

stdin: // query EC50 value for entry `CN1CCc2cc(OCCN3CCC4(CC3)C(=O)Nc3ccc(Cl)cc34)ccc2S1(=O)=O`
stdout: 66.7

stdin: // query EC50 value for entry CC(CO)(c1ncc(OCCN2CCC3(CC2)C(=O)Nc2ccc(Cl)cc23)cc1C(F)(F)F)S(C)(=O)=O (single isomer, unassigned)
stdout: 42.7

stdin: // query EC50 value for entry `O=C(c1ccc(OCCN2CCC3(CC2)C(=O)N(CCO)c2ccc(Cl)cc23)cc1C(F)(F)F)N1CCS(=O)(=O)CC1`
stdout: 50.7

stdin: // query EC50 value for entry `CC1(O)CN(c2ncnc3cc(OCCN4CCC5(CC4)C(=O)Nc4ccc(Cl)cc45)cnc23)C1`
stdout: 203
